Reported Inhibition values follow for various compounds
System: Cryptococcus neoformans
ASSAY CONDITIONS: Concentration 20 uM; ASSAY_TEST Inhibition of Fungal Growth; detection method Resazurin; Absorption (OD600-OD570); plate type 384well; NBS; CORNING #3640
Description: Antifungal activity against Cryptococcus neoformans H99 ATCC 208821 (CO-ADD:FG_002); MIC in YNB media using NBS plates, by Resazurin OD(600-570)
Results with a measured potency or affinity are listed apart.

Answered cases to consult:
- COMPOUND: "OCC1(CO)CC2(C1)CC(CO)(CO)C2"
  Inhibition: "1.54%"
- COMPOUND: "CCOC(=O)C1=C(N)N=C(N)C1=Nc1ccc(OC)cc1"
  Inhibition: "-7.84%"
- COMPOUND: "CC(=O)c1c(O)c(C)c(O)c2c1OC1=CC(=O)/C(=C(/C)N)C(=O)C12C (configuration not stated)"
  Inhibition: "-10.35%"
- COMPOUND: "CCc1oc2ccccc2c1C(=O)c1cc(Br)c(O)c(Br)c1 [BENZBROMARONE]"
  Inhibition: "-6.93%"
- COMPOUND: "O=C1COc2cccnc2N1"
  Inhibition: "-2.63%"
- COMPOUND: "O=C(O)C1C2OC3C(OC(=O)C31)C2Br (configuration not stated)"
  Inhibition: "11.09%"
- COMPOUND: "COc1ccc2c(c1)CCN1C2CCN2C(=O)CCC21 (configuration not stated)"
  Inhibition: "-4.03%"
- COMPOUND: "CC(NC(=O)c1ccc(Cl)c(Cl)c1)c1ccc(-c2ccccc2)cc1 (configuration not stated)"
  Inhibition: "-10.74%"
- COMPOUND: "CC(=O)OCCn1c2nc(=O)[nH]c(=O)c-2nc2cc(C)c(C)cc21"
  Inhibition: "-7.97%"
- COMPOUND: "COc1cnc(SC)nc1Nc1ccc(C#N)cc1"
  Inhibition: "-3.99%"

### Prompt Recorded Inhibition of O=C1NC(=O)C(Cc2ccccc2)(c2cccnc2)N1 (configuration not stated) , please.
### Response 16.94%

### Prompt I'd like to know its Inhibition. The compound in question is Oc1ccccc1-n1c(-c2ccccc2)ccc1-c1ccccc1
### Response -2.48%

====

Tested on: Candida albicans
ASSAY CONDITIONS: 20 µM
Description: Antifungal activity against Candida albicans ATCC 90028 (CO-ADD:FG_001); MIC in YNB media using NBS plates, by OD630
Potency and affinity values are given separately.
Attribute: Inhibition
Numeric answer only, unit % assumed.

- MOLECULE: "C=CCOc1ccc(S(C)(=O)=O)cc1"
  UNIT OF MEASURE: "%"
  RECORDED VALUE: 1.73
- MOLECULE: "Nc1ccc(C(=O)Oc2ccc([N+](=O)[O-])cc2)cc1"
  UNIT OF MEASURE: "%"
  RECORDED VALUE: 3.13
- MOLECULE: "CC(=O)NS(=O)(=O)c1ccc2sc(C)nc2c1"
  UNIT OF MEASURE: "%"
  RECORDED VALUE: 3.43

### Prompt Using the record for CN(C)c1ccc(/N=N\c2cccc3ccoc23)cc1 , report its Inhibition.
### Response 3.86

### Prompt Given the entry C=CCOc1ccnc(-c2ccccc2)n1 , report its measured Inhibition.
### Response 1.14

### Prompt What value of measured Inhibition is listed for O=C(Nc1ccc(Cl)cc1)c1cc2c(cc1O)[nH]c1ccccc12 ?
### Response 8.44

### Prompt Look at this molecule and give its reported Inhibition. CC1=CC(=O)CC(C)(C)C1(O)/C=C/C(C)=C/C(=O)O (stereo not given)
### Response 5.51

### Prompt // returns reported Inhibition for input CN(NC(=O)C(=O)NCc1ccco1)C(=O)NC1CCCCC1
### Response 4.23

### Prompt Please look up its Inhibition: COC(=NC(C)C)NC(C)C
### Response 1.22

### Prompt Find the recorded Inhibition belonging to O=C(NC(=S)Nc1cc(Cl)ccc1O)c1cccc(Br)c1 and report it.
### Response -2.09

### Prompt # query: Inhibition of entry c1ccc(-c2nnc(-c3ccccn3)s2)nc1
### Response 4.16

### Prompt I am curious: what Inhibition value has been reported for NC(=O)c1ccc2c(c1)S(=O)(=O)c1ccccc1C2=O ?
### Response 1.19

### Prompt Recorded Inhibition of Cc1cc(=O)c2c(o1)C(=O)c1occc1C2=O , please.
### Response 7.04

### Prompt Form field: reported Inhibition of O=C1C2CC3N1CCC31c3ccccc3-n3c1c2ccc3=O (stereo not given)
### Response 5.53

### Prompt What Inhibition value was documented for this molecule, Cc1cccc(N=C(S)Nc2cccc(C)n2)n1 ?
### Response 3.4

### Prompt Look up Inhibition: COc1cc2c(O)cc(C(=O)O)c(-c3cc(OC)c(OC)c(OC)c3)c2cc1OC
### Response -0.33

### Prompt What value of Inhibition has been reported for the following molecule? Cc1cccc(C(O)C(O)c2cccc(C)n2)n1 (stereo not given)
### Response 0.07

### Prompt Request the reported Inhibition associated with Nc1nc(SCc2ccccn2)c2ncn(C3OC(CO)C(O)C3O)c2n1 (stereo not given)
### Response -1.39

### Prompt Would you kindly share the measured Inhibition for NC(=O)/C(=C\c1ccncc1)c1cccc2ccccc12 ?
### Response -4.11

### Prompt What does the data say about its Inhibition? Entry: CC(C)(C)c1ccc(C(=O)Nc2ccc(S(N)(=O)=O)cc2)cc1
### Response 2.9

### Prompt Look up Inhibition: O=C(O)C1CCC(=O)N1C(=O)OCc1ccccc1 (stereo not given)
### Response -1.6

====

Tested on: Candida albicans
ASSAY CONDITIONS: 20 µM
Results with a measured potency or affinity are listed apart.
Inhibition overview
Write down the numeric answer in % and omit the unit.

### Prompt Look up Inhibition for this molecule: C[C@]12CC[C@H](O)CC1=CC[C@@H]1[C@@H]2CC[C@]2(C)c3n[nH]cc3C[C@@H]12
### Response -0.24

====

Test system: Staphylococcus aureus
ASSAY OVERVIEW: Antibacterial activity against Staphylococcus aureus MRSA ATCC 43300 (CO-ADD:GP_020); MIC in CAMBH media using NBS plates, by Resazurin F(560/590)
Type: functional
ASSAY CONDITIONS: Concentration 20 uM, ASSAY_TEST Inhibition of Bacterial Growth, detection method Resazurin, Fluorescence (ex560/em590), MEDIA CAMHB, plate type 384well, CORNING #3640, time 18 hr
REPORTED METRIC: Inhibition (%)
Respond with the bare value in %.

Worked examples, 2 compounds total:
- COMPOUND: "CCN(CC)CCNC(=O)c1ccc(NCN2C(=O)NC(c3ccccc3)(c3ccccc3)C2=O)cc1"
  Inhibition / %: 12.78
- COMPOUND: "CC1=CC(=O)CC(C)(C)C1(O)/C=C/C(C)=C/C(=O)O (stereo not given)"
  Inhibition / %: -9.32

### Prompt Field: Inhibition (Staphylococcus aureus). Entry: c1ccc(-c2nc(-c3ccccn3)nc(-c3ccccn3)n2)nc1
### Response 2.88

### Prompt Notebook: pull reported Inhibition for Staphylococcus aureus, entry COC(=O)Nc1csc2c1NC(=O)CCCC2
### Response 9.05

### Prompt Record lookup: for Staphylococcus aureus, what Inhibition belongs to COC(=O)C1=C(C(=O)OC)[C@@H]2CCC[C@H]1[C@H]1[C@@H]2N=NN1c1ccccc1 ?
### Response 22.18

### Prompt What measured Inhibition is associated with COC1OC(O)C(NC(=O)C(F)(F)F)CC1O (stereo not given) on Staphylococcus aureus?
### Response 15.69

====

Let's look at some compounds and their measured Inhibition.
Tested on: Cryptococcus neoformans
ASSAY CONDITIONS: Concentration 20 uM; ASSAY_TEST Inhibition of Fungal Growth; detection method Resazurin; Absorption (OD600-OD570); plate type 384well; NBS; CORNING #3640
Entries with a potency or affinity are not part of this list.
Kindly answer with a numeric value in %, unit omitted.

Here is how some compounds turned out for Inhibition.
- COMPOUND: "Cn1c(=O)c2c(nc(N3CCCCC3)n2C)n(C)c1=O"
  UNIT OF MEASURE: "%"
  Inhibition: -7.82
- COMPOUND: "O=C(C(Cl)Cl)N1CC2CCC(CC2)C1"
  UNIT OF MEASURE: "%"
  Inhibition: 23.84
- COMPOUND: "CSc1nc(O)c(Nc2cccc(Cl)c2)c(O)n1"
  UNIT OF MEASURE: "%"
  Inhibition: 16.48
- COMPOUND: "C=C(C)c1nc(Oc2ccccc2)nc(Oc2ccccc2)n1"
  UNIT OF MEASURE: "%"
  Inhibition: -9.97

### Prompt Please give the measured Inhibition for this compound: CC(=O)OCCn1c([N+](=O)[O-])cnc1/C=[N+](\[O-])C1CCCCC1
### Response -10.83

### Prompt # lookup: Inhibition of CC(C)N(C(=O)c1cccc([N+](=O)[O-])c1)C(C)C
### Response -4.03

### Prompt Please look up its Inhibition: COC(=O)Nc1csc2c1NC(=O)CCCC2
### Response -7.13

### Prompt Could you share which Inhibition value was measured for COC(=O)c1c[n+]([O-])ccc1OC ?
### Response -2.93

### Prompt Consider the compound NC(=O)c1ccccc1NC(=O)COc1ccc(Cl)cc1 and give its measured Inhibition.
### Response -8.55

### Prompt # input compound: Clc1[nH]cnc2nccc1-2 ; wanted: its Inhibition
### Response -2.5

### Prompt What does the data say about its Inhibition? Entry: CCc1ccc(CCN2C(=O)c3ccccc3C2=O)nc1
### Response -6.09

### Prompt I would be grateful if you could share the reported Inhibition for CN(C)CC1C2CCC(C2)C1O (stereo not drawn) .
### Response -7.67
